Where do these numbers come from? They come from patent US20180044343A1.

Target: PDE1B (Homo sapiens, UniProt Q01064)
Sequence (Q01064 whole entry): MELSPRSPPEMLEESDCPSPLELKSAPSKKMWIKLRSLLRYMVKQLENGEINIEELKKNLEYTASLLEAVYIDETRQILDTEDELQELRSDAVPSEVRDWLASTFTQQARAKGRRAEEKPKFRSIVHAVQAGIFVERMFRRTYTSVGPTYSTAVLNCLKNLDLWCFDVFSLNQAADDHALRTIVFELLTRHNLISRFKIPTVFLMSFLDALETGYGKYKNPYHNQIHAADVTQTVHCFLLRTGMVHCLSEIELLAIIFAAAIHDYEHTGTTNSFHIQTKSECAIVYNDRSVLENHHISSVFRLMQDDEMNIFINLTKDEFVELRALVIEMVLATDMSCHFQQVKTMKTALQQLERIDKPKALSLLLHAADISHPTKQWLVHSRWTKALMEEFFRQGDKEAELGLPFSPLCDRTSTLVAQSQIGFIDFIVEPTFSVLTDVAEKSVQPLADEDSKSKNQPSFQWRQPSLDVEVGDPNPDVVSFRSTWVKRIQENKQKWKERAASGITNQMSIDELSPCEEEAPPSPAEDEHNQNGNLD
Test: In vitro HTRF PDE1 inhibition assay (PDE1B)
Type: biochemical
Conditions: in vitro PDE1B HTRF Assay; read-out: IC50
IC50 listing for selected compounds.

API: value(readout= IC50, system= PDE1B (Homo sapiens, UniProt Q01064), query= Cn1c(OCCC2(C(F)(F)F)CC2)nn2c(C3CCOCC3)ncc2c1=O )
< 1000 nM

API: value(readout= IC50, system= PDE1B (Homo sapiens, UniProt Q01064), query= COCCn1c(OCC2CCC(F)(F)CC2)nn2c(C3CCOCC3)ncc2c1=O )
1000 to 10000 nM

API: value(readout= IC50, system= PDE1B (Homo sapiens, UniProt Q01064), query= CC(C)c1ncc2c(=O)n(C)c(NCc3ccc(Cl)cc3F)nn12 )
< 1000 nM

API: value(readout= IC50, system= PDE1B (Homo sapiens, UniProt Q01064), query= CCn1c(NCc2ccc(C#N)cn2)nn2c(C(C)C)ncc2c1=O )
< 1000 nM

API: value(readout= IC50, system= PDE1B (Homo sapiens, UniProt Q01064), query= COc1nn2c(C3CCOCC3)ncc2c(=O)n1Cc1ccc(C)cc1 )
< 1000 nM

----------
Biological target: PDE1B (Homo sapiens)
Test: In vitro HTRF PDE1 inhibition assay (PDE1B)
Type: biochemical
Conditions: in vitro PDE1B HTRF Assay; read-out: IC50
endpoint: IC50

compound | IC50
CCc1nn2c(C3CCOCC3)ncc2c(=O)n1CC1CCC(F)(F)CC1 | < 1 µM

Name the recorded IC50 for O=c1[nH]c(N2CCCC2c2cccc(Cl)c2)nn2c(C3CCOCC3)ncc12 (stereo not drawn) .
< 1 µM

Name the recorded IC50 for O=c1c2cnc(C3CCOCC3)n2nc(OCC2CCC(F)(F)CC2)n1CC1CCC(F)(F)CC1 .
< 1 µM

----------
Target: PDE1A3 (Homo sapiens, UniProt P54750)
Assay: In vitro SPA PDE1 inhibition assay (PDE1A3)
Assay type: biochemical
Details: PDE1A3, [3H]-cGMP 100 nM
endpoint: IC50 (µM)
Write it as a number; the unit µM goes unstated.

Illustrative cases are given below, each with its answer.
compound | target or system | IC50 [µM]
CCn1c(O[C@H]2CC[C@H](COC)CC2)nn2c(C3CCOCC3)ncc2c1=O [Example 317] | PDE1A3 (Homo sapiens, UniProt P54750) | 0.042
COc1nn2c(C3CCOCC3)ncc2c(=O)n1C[C@H]1CC[C@@H](OC)CC1 [Example 101] | PDE1A3 (Homo sapiens, UniProt P54750) | 0.121
CCc1nn2c(C3CCOCC3)ncc2c(=O)n1CC1CCC(F)(F)CC1 [Example 239] | PDE1A3 (Homo sapiens, UniProt P54750) | 0.065
Cn1c(OCc2ccc(F)cc2)nn2c(C3CCOCC3)nc(F)c2c1=O [Example 116] | PDE1A3 (Homo sapiens, UniProt P54750) | 0.207

Please examine the following record next.
Name the recorded IC50 for Cc1nn2c(C3CCOCC3)ncc2c(=O)n1Cc1ccccc1 [Example 238] .
0.137

----------
Target: UniProt Q01064
Experiment: In vitro HTRF PDE1 inhibition assay (PDE1B)
Assay type: biochemical
Details: in vitro PDE1B HTRF Assay; read-out: IC50
endpoint: IC50

Illustrative cases are given below, each with its answer.
compound | result
CCO[C@H]1CC[C@@H](COc2nn3c(C4CCOCC4)ncc3c(=O)n2CC)CC1 | < 1000 nM
CCn1c(OCc2ccc(-c3ccc(C#N)cc3)cc2)nn2c(C3CCOCC3)ncc2c1=O | < 1000 nM
O=c1c2cnc(C3CCOCC3)n2nc(N2CCCC2)n1CC1CC1 | 1000 to 10000 nM
Cn1c(OC2CCCCC2)nn2c(C3CCOCC3)ncc2c1=O | < 1000 nM
CC(C)c1ncc2c(=O)n(C)c(NCCc3ccccn3)nn12 | < 1000 nM
CCn1c(OCCCc2cccnc2)nn2c(C3CCOCC3)ncc2c1=O | < 1000 nM
COc1nn2c(C3CCOCC3)ncc2c(=O)n1Cc1ccncc1 | 1000 to 10000 nM
CCn1c(N2CCC[C@@H]2c2ccc(Cl)cc2)nn2c(C(C)C)ncc2c1=O | < 1000 nM
COCCCN1CCN(c2nn3c(C4CCOCC4)ncc3c(=O)n2C)CC1 | < 1000 nM
CCn1c(OCc2cccnc2)nn2c(C(C)C)ncc2c1=O | < 1000 nM

Name the recorded IC50 for COc1nn2c(C3CCOCC3)ncc2c(=O)n1CC1CCC1 .
< 1000 nM

Name the recorded IC50 for CCn1c(OC[C@H]2CC[C@@H](C(F)(F)F)CC2)nn2c(C3CCOCC3)ncc2c1=O .
< 1000 nM

Name the recorded IC50 for Cn1c(O[C@H]2CC[C@H](C(F)(F)F)CC2)nn2c(C3CCOCC3)ncc2c1=O .
< 1000 nM

Name the recorded IC50 for O=c1c2cnc(C3CCOCC3)n2nc(N2CCCC2)n1CCC1CCOCC1 .
10000 to 100000 nM

Name the recorded IC50 for CO[C@H]1CC[C@H](Oc2nn3c(C4CCOCC4)ncc3c(=O)n2C(C)C)CC1 .
< 1000 nM

Name the recorded IC50 for CCn1c(OCC2(c3ccccc3)CC2)nn2c(C3CCOCC3)ncc2c1=O .
< 1000 nM

Name the recorded IC50 for CC(C)c1ncc2c(=O)[nH]c(N3CCCC3c3cccc(Cl)c3)nn12 (stereo not drawn) .
< 1000 nM

Name the recorded IC50 for Cn1c(OC[C@H]2CC[C@H](C(F)(F)F)CC2)nn2c(C3(O)CCCCC3)ncc2c1=O .
1000 to 10000 nM
